# measured_target: Human KDR (Homo sapiens)
# Sequence (P35968 20-1356): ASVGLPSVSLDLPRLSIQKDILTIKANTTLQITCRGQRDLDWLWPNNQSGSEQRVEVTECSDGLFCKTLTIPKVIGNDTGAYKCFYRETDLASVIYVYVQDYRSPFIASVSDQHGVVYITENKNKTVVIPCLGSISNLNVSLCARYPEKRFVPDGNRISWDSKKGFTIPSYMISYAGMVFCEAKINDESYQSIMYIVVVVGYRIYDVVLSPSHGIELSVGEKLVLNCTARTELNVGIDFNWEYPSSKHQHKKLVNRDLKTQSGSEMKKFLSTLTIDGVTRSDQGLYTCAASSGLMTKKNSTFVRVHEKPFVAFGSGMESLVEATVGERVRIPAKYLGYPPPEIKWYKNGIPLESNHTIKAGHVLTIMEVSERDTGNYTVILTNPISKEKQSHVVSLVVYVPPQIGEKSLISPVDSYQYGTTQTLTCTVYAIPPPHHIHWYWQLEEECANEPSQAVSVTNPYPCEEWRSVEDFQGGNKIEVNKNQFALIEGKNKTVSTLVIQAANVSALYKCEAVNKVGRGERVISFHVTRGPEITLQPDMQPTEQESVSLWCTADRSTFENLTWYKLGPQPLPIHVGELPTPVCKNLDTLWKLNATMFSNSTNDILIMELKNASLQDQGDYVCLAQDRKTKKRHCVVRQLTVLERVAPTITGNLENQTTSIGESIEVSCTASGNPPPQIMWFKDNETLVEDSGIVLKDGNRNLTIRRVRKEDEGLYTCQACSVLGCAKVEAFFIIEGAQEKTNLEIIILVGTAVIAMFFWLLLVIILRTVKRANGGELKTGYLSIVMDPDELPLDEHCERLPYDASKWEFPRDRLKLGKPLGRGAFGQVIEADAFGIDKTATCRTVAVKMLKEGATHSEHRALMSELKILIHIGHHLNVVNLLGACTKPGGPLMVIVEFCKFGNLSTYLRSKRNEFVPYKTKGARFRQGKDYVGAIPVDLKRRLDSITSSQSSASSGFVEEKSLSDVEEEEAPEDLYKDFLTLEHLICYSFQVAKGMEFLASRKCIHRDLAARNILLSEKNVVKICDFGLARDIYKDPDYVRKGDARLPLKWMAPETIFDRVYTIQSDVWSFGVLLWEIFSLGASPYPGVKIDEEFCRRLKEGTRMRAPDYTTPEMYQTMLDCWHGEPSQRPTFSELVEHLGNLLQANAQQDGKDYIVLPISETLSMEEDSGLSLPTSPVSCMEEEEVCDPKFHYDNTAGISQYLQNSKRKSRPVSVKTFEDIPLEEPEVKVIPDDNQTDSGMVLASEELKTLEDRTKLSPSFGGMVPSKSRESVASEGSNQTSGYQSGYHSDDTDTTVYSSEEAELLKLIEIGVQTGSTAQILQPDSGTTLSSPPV
# assay_comment: Inhibition of KDR phosphorylation in human KDR-transfected NIH3T3 cells (ELISA)
# experimental_context: human KDR-transfected NIH3T3 cells, VEGF 100 ng/ml, ELISA; read-out: KDR phosphorylation 50% inhibitory concentration (IC50)
measure_name: IC50 (nM)

# annotated cases, reported IC50 shown
- molecule: "COc1cc2nccc(Oc3ccc(NC(=O)N[C@H](C)c4ccccc4OC)cc3)c2cc1OC [Example 52]"
  measure_name: "IC50"
  number: 7.2
- molecule: "COc1cc2nccc(Oc3ccc(NC(=O)N[C@@H](C)c4ccc([N+](=O)[O-])cc4)cc3)c2cc1OC [Example 35]"
  measure_name: "IC50"
  number: 310
- molecule: "COc1cc2nccc(Oc3ccc(NC(=O)NC(C)c4ccc(F)cc4)cc3F)c2cc1OC (stereo not shown) [Example 31]"
  measure_name: "IC50"
  number: 1
- molecule: "COc1cc2nccc(Oc3ccc(NC(=O)NC(C)c4nccs4)cc3F)c2cc1OC (stereo not shown) [Example 73]"
  measure_name: "IC50"
  number: 43.3
- molecule: "COc1cc2nccc(Oc3ccc(NC(=O)N[C@@H](C)c4ccc(F)cc4)cc3F)c2cc1OC [Example 32]"
  measure_name: "IC50"
  number: 29.4

I: COc1cc2nccc(Oc3ccc(NC(=O)N[C@H](C)c4nccs4)c(C(F)(F)F)c3)c2cc1OC [Example 85]
II: COc1cc2nccc(Oc3cc(C)c(NC(=O)N[C@H](C)c4ccc(F)cc4)cc3C)c2cc1OC [Example 9]
Look at I and II . Which one has the lower recorded IC50 number? Field: selected label. Fill in the label of the entry you choose.
II

a: COc1cc2nccc(Oc3ccc(NC(=O)N[C@@H](C)c4ccc(Cl)cc4)cc3)c2cc1OC [Example 47]
b: COc1cc2nccc(Oc3ccc(NC(=O)NC(C)c4ccc(F)cc4)c(C(F)(F)F)c3)c2cc1OC (stereo not shown) [Example 19]
c: COc1cc2nccc(Oc3ccc(NC(=O)N[C@@H](C)c4ccc(F)cc4)c(F)c3)c2cc1OC [Example 29]
d: COc1cc2nccc(Oc3ccc(NC(=O)N[C@H](C)c4ccc(F)cc4)cc3Cl)c2cc1OC [Example 12]
Rank order required: IC50, descending. Order the labels as requested and give them as your answer.
a, c, d, b
(a: 310 nM, c: 27.3 nM, d: 2.8 nM, b: 1.5 nM)

I: COc1cc(Oc2ccnc3cc(OC)c(OC)cc23)ccc1NC(=O)N[C@@H](C)c1ccc(F)cc1 [Example 17]
II: COc1cc2nccc(Oc3ccc(NC(=O)N[C@@H](C)c4ccc(F)cc4)cc3)c2cc1OC [Example 2]
From the recorded data, which exceeds the other in IC50: I or II ? Field: selected label. Fill in the label of the entry you choose.
I
(I: 315 nM, II: 32.3 nM)

P: COc1cc2nccc(Oc3ccc(NC(=O)N[C@@H](C)c4ccc(F)cc4)c(C)c3)c2cc1OC [Example 14]
Q: COc1cc2nccc(Oc3cc(C)c(NC(=O)N[C@H](C)c4nccs4)cc3C)c2cc1OC [Example 87]
Look at P and Q . Which one has the lower recorded IC50 number? Field: selected label. Fill in the label of the entry you choose.
P
